Examples of molecules with documented Ki follow.
- TESTED_ON: Mu-type opioid receptor (Rattus norvegicus, UniProt P33535)
- Sequence (P33535 whole entry): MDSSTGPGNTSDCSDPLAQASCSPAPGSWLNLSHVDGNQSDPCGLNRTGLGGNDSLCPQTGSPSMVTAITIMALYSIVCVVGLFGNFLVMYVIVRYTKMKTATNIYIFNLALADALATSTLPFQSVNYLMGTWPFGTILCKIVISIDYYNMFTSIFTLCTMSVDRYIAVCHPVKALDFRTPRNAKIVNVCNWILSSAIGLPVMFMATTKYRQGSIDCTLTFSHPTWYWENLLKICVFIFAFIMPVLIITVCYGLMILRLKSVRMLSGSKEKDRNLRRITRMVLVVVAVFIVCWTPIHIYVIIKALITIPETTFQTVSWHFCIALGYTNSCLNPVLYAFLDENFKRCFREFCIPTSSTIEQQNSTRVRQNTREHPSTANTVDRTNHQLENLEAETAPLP
READOUT: Ki (nM)

# COMPOUND, OBSERVED_MEASUREMENT
rows = [
    ("Oc1ccc2c3c1O[C@H]1c4c(c5c(n4Cc4ccccc4)[C@@H]4Oc6c(O)ccc7c6[C@@]46CCN(CC4CC4)[C@H](C7)[C@]6(O)C5)C[C@@]4(O)[C@@H](C2)N(CC2CC2)CC[C@]314", 10),
    ("CN1CC[C@]23c4c5ccc(O)c4O[C@H]2c2[nH]c4c(c2C[C@@]3(O)[C@H]1C5)C[C@@]1(O)[C@H]2Cc3ccc(O)c5c3[C@@]1(CCN2C)[C@H]4O5", 63.6),
]
